target: Estrogen receptor (Homo sapiens) (UniProt P03372); assay: Agonist activity at ER-alpha (unknown origin) transfected in HEK293T cells assessed as stimulation of transcriptional activity after 24 hrs by luciferase reporter gene assay relative to 17-beta estradiol; assay type: cell-based; settings: HEK-293T
Sequence (P03372 whole entry): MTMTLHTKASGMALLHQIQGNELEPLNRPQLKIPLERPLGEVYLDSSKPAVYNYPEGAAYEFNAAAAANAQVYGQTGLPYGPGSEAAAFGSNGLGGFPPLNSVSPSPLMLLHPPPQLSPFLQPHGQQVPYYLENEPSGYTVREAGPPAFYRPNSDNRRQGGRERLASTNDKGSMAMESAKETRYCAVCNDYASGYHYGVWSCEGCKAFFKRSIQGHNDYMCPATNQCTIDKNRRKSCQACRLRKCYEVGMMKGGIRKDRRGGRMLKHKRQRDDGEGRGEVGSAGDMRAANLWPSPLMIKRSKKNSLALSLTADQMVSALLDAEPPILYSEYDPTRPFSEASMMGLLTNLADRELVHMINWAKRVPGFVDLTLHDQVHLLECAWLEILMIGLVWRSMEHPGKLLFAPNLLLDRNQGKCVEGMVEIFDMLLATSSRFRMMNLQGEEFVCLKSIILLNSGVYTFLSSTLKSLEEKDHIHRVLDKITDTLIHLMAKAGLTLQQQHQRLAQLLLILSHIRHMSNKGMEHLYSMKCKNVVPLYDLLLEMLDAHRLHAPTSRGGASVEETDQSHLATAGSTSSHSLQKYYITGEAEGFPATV
Reported Metric: Efficacy (%)

Example cases with answers are listed next.
1. O=C(O)CCCCCCC(=O)Nc1ccc(C2=C(c3ccc(O)cc3)C3CC(S(=O)(=O)Oc4ccc(Cl)cc4)C2O3)cc1 (racemic) :: 149
2. O=C(O)CCCCCCC(=O)Nc1ccc(C2=C(c3ccc(O)cc3)C3CC(S(=O)(=O)Oc4ccccc4O)C2O3)cc1 (racemic) :: 12
3. COC(=O)CCCCCCC(=O)Nc1ccc(OS(=O)(=O)C2CC3OC2C(c2ccc(O)cc2)=C3c2ccc(O)cc2)cc1 (configuration not stated) :: -35
4. Cc1ccccc1OS(=O)(=O)C1CC2OC1C(c1ccc(NC(=O)CCCCCCC(=O)O)cc1)=C2c1ccc(O)cc1 (racemic) :: -3
5. O=C(O)CCCCCCC(=O)Nc1ccc(C2=C(c3ccc(O)cc3)C3CC(S(=O)(=O)Oc4ccc(F)cc4)C2O3)cc1 (racemic) :: 38

1: Cc1cccc(OS(=O)(=O)C2CC3OC2C(c2ccc(NC(=O)CCCCCCC(=O)O)cc2)=C3c2ccc(O)cc2)c1 (racemic)
2: COc1ccc(OS(=O)(=O)C2CC3OC2C(c2ccc(NC(=O)CCCCCCC(=O)O)cc2)=C3c2ccc(O)cc2)cc1 (racemic)
Input pair: 1 , 2 . Output: entry with lower Efficacy. Answer with the label corresponding to your selection.
1
(1: -28%, 2: 27%)
